experimental.details: Stability of conjugates in Hepes buffer (control of blood stability test)
Type: physicochemical
assay.setup: Hepes buffer pH 7.5, 10 μmolar, 37° C.
Residues, ends and D or L forms follow the SMILES beside them. *: point of attachment. Doxorubicin(3'-N) = COc1cccc2c1C(=O)c1c(O)c3c(c(O)c1C2=O)C[C@@](O)(C(=O)CO)C[C@@H]3O[C@H]1C[C@H](N*)[C@H](O)[C@H](C)O1
The entries below come with measured Conjugate Stability After 5.5 Hours (Percent of Control (In Buffer, T = 0)), Buffer values attached.
endpoint.label: Conjugate Stability After 5.5 Hours (Percent of Control (In Buffer, T = 0)), Buffer (%)

compound: COc1cccc2c1C(=O)c1c(O)c3c(c(O)c1C2=O)C[C@@](O)(C(=O)CO)C[C@@H]3O[C@H]1C[C@H](NC(=O)[C@H](CC(C)C)NC(=O)[C@H](C)NC(=O)[C@H](CC(C)C)NC(=O)CNC(=O)[C@H](CC(C)C)NC(=O)[C@@H]2CCCN2C(C)=O)[C@H](O)[C@H](C)O1 [Ac-PLG-LAL-Dox, acetyl-P-L-G-L-A-L-Dox] (Ac-PLGLAL-{Doxorubicin(3'-N)})
endpoint.unit: %
readout.number: 96.8
//
compound: COc1cccc2c1C(=O)c1c(O)c3c(c(O)c1C2=O)C[C@@](O)(C(=O)CO)C[C@@H]3O[C@H]1C[C@H](NC(=O)[C@H](CC(C)C)NC(=O)CNC(=O)[C@H](CC(C)C)NC(=O)[C@@H]2CCCN2C(=O)CNC(C)=O)[C@H](O)[C@H](C)O1 [Ac-GPLG-L-Dox] (Ac-GPLGL-{Doxorubicin(3'-N)})
endpoint.unit: %
readout.number: 106
//
compound: COc1cccc2c1C(=O)c1c(O)c3c(c(O)c1C2=O)C[C@@](O)(C(=O)CO)C[C@@H]3O[C@H]1C[C@H](NC(=O)[C@H](CC(C)C)NC(=O)[C@H](CC(C)C)NC(=O)CNC(=O)[C@H](CC(C)C)NC(=O)[C@@H]2CCCN2C(=O)CNC(C)=O)[C@H](O)[C@H](C)O1 [Ac-GPLG-LL-Dox, acetyl-G-P-L-G-L-L-Dox] (Ac-GPLGLL-{Doxorubicin(3'-N)})
endpoint.unit: %
readout.number: 105
//
compound: COc1cccc2c1C(=O)c1c(O)c3c(c(O)c1C2=O)C[C@@](O)(C(=O)CO)C[C@@H]3O[C@H]1C[C@H](NC(=O)[C@H](CC(C)C)NC(=O)[C@H](C)NC(=O)[C@H](Cc2ccc(O)cc2)NC(=O)[C@H](CC(C)C)NC(=O)CNC(=O)[C@H](CC(C)C)NC(=O)[C@@H]2CCCN2C(C)=O)[C@H](O)[C@H](C)O1 [Ac-PLG-LYAL-Dox, acetyl -P-L-G-L-Y-A-L-Dox] (Ac-PLGLYAL-{Doxorubicin(3'-N)})
endpoint.unit: %
readout.number: 91.3
//
compound: COc1cccc2c1C(=O)c1c(O)c3c(c(O)c1C2=O)C[C@@](O)(C(=O)CO)C[C@@H]3O[C@H]1C[C@H](NC(=O)[C@H](CC(C)C)NC(=O)[C@H](CC(C)C)NC(=O)CNC(=O)[C@H](CC(C)C)NC(=O)[C@@H]2CCCN2C(C)=O)[C@H](O)[C@H](C)O1 [Ac-PLG-LL-Dox, Acetyl-P-L-G-L-L-Dox] (Ac-PLGLL-{Doxorubicin(3'-N)})
endpoint.unit: %
readout.number: 106
//
compound: COc1cccc2c1C(=O)c1c(O)c3c(c(O)c1C2=O)C[C@@](O)(C(=O)CO)C[C@@H]3O[C@H]1C[C@H](NC(=O)[C@H](CC(C)C)NC(=O)[C@H](C)NC(=O)[C@H](CC(C)C)NC(=O)CNC(=O)[C@H](CC(C)C)NC(=O)[C@@H]2CCCN2C(=O)CNC(C)=O)[C@H](O)[C@H](C)O1 [Ac-GPLG-LAL-Dox, acetyl-G-P-L-G-L-A-L-Dox] (Ac-GPLGLAL-{Doxorubicin(3'-N)})
endpoint.unit: %
readout.number: 92.2
//
compound: COc1cccc2c1C(=O)c1c(O)c3c(c(O)c1C2=O)C[C@@](O)(C(=O)CO)C[C@@H]3O[C@H]1C[C@H](NC(=O)[C@H](CC(C)C)NC(=O)CNC(=O)[C@H](CC(C)C)NC(=O)[C@@H]2CCCN2C(C)=O)[C@H](O)[C@H](C)O1 [Ac-PLG-L-Dox, Ac-PLGL-Dox] (Ac-PLGL-{Doxorubicin(3'-N)})
endpoint.unit: %
readout.number: 99.2
//
compound: COc1cccc2c1C(=O)c1c(O)c3c(c(O)c1C2=O)C[C@@](O)(C(=O)CO)C[C@@H]3O[C@H]1C[C@H](NC(=O)[C@H](CC(C)C)NC(=O)[C@H](C)NC(=O)[C@H](CC(C)C)NC(=O)[C@H](CC(C)C)NC(=O)CNC(=O)[C@H](CC(C)C)NC(=O)[C@@H]2CCCN2C(C)=O)[C@H](O)[C@H](C)O1 [Ac-PLG-LLAL-Dox, acetyl -P-L-G-L-L-A-L-Dox] (Ac-PLGLLAL-{Doxorubicin(3'-N)})
endpoint.unit: %
readout.number: 102.0
//
compound: COc1cccc2c1C(=O)c1c(O)c3c(c(O)c1C2=O)C[C@@](O)(C(=O)CO)C[C@@H]3O[C@H]1C[C@H](NC(=O)[C@H](CC(C)C)NC(=O)[C@H](Cc2ccc(O)cc2)NC(=O)[C@H](CC(C)C)NC(=O)CNC(=O)[C@H](CC(C)C)NC(=O)[C@@H]2CCCN2C(C)=O)[C@H](O)[C@H](C)O1 [Ac-PLG-LYL-Dox, acetyl-P-L-G-L-Y-L-Dox] (Ac-PLGLYL-{Doxorubicin(3'-N)})
endpoint.unit: %
readout.number: 112

From: patent US6844318B2
